Reference source: ChEMBL document CHEMBL3272173

Reported inhibition values for the following compounds.
Target: Gonadotropin-releasing hormone receptor (Rattus norvegicus)
Test: In vitro antagonist activity at GNRHR in CD rat anterior pituitary gland assessed as inhibition of LH-RH-stimulated LH release at compound to LH-RH molar ratio of 20 after 4 hrs by radioimmunoassay
Settings: concentration not given here

Observe how each entry below is paired with its result.
Entry under test: CCNC(=O)[C@@H]1CCCN1C(=O)[C@H](CCCNC(=N)N)NC(=O)[C@H](CC(C)C)NC(=O)[C@@H](Cc1ccccc1)NC(=O)[C@H](Cc1ccc(O)cc1)NC(=O)[C@H](CO)NC(=O)[C@H](Cc1c[nH]c2ccccc12)NC(=O)[C@H](CC(C)C)NC(=O)OCc1ccccc1.Cl . Its inhibition was 100%

Entry under test: CC(=O)O.CC(C)C[C@H](NC(=O)[C@@H](Cc1ccccc1)NC(=O)[C@H](Cc1ccc(O)cc1)NC(=O)[C@H](CO)NC(=O)[C@H](Cc1c[nH]c2ccccc12)NC(=O)[C@H](COCc1ccccc1)NC(=O)OCc1ccccc1)C(=O)N[C@@H](CCCNC(=N)N)C(=O)N1CCC[C@H]1C(=O)N(C)C . Its inhibition was 100%

Next:
Entry under test: CC(C)C[C@H](NC(=O)[C@@H](CC(C)C)NC(=O)[C@H](Cc1ccc(O)cc1)NC(=O)[C@H](CO)NC(=O)[C@H](Cc1c[nH]c2ccccc12)NC(=O)[C@H](Cc1ccc(OCc2ccccc2)cc1)NC(=O)OCc1ccccc1)C(=O)N[C@@H](CCCNC(=N)N)C(=O)N1CCC[C@H]1C(=O)NCC(N)=O.Cl . Its inhibition was 57%

====

Target: Gonadotropin-releasing hormone receptor (Rattus norvegicus)
Assay: In vitro antagonist activity at GNRHR in CD rat anterior pituitary gland assessed as inhibition of LH-RH-stimulated LH release at compound to LH-RH molar ratio of 2800 after 4 hrs by radioimmunoassay
Settings: concentration not given here
Peptide text beside a SMILES is read from it. * marks the point of attachment. Cbz = O=C(OCc1ccccc1)*; Boc = CC(C)(C)OC(=O)*; Bn = c1ccc(C*)cc1
Reported inhibition values for the following compounds.
Only the number, expressed in %, is required.

Observe how each entry below is paired with its result.
Entry under test: CCNC(=O)[C@@H]1CCCN1C(=O)[C@H](CCCNC(=N)N)NC(=O)[C@H](CC(C)C)NC(=O)CNC(=O)[C@H](Cc1ccc(O)cc1)NC(=O)[C@H](CO)NC(=O)[C@H](Cc1c[nH]c2ccccc12)NC(=O)[C@H](COCc1ccccc1)NC(=O)OC(C)(C)C (Boc-S(Bn)WSYGLRP-NHEt) . Its inhibition was 40

Entry under test: CC(C)C[C@H](NC(=O)CNC(=O)[C@H](Cc1ccc(O)cc1)NC(=O)[C@H](CO)NC(=O)[C@H](Cc1c[nH]c2ccccc12)NC(=O)[C@H](COCc1ccccc1)NC(=O)OCc1ccccc1)C(=O)N[C@@H](CCCNC(=N)N)C(=O)N1CCC[C@H]1C(=O)NCC(N)=O.Cl (Cbz-S(Bn)WSYGLRPG-NH2) . Its inhibition was 100

Next:
Entry under test: CC(C)C[C@H](NC(=O)CNC(=O)[C@H](Cc1ccc(O)cc1)NC(=O)[C@H](CO)NC(=O)[C@H](Cc1c[nH]c2ccccc12)NC(=O)[C@H](Cc1ccc(OCc2ccccc2)cc1)NC(=O)OCc1ccccc1)C(=O)N[C@@H](CCCNC(=N)N)C(=O)N1CCC[C@H]1C(=O)NCC(N)=O.Cl (Cbz-Y(Bn)WSYGLRPG-NH2) . Its inhibition was 74
